Target: human TLR7 (Homo sapiens)
Assay: TLR7 inhibition reporter assay (HEK-Blue SEAP)
Conditions: HEK-Blue cells overexpressing human TLR7, stimulated with gardiquimod 7.5 μM, 22 hour incubation
Hi! Could you tag entries with IC50 below 100 nM as Met, and those at or above as Not met? Much appreciated.

Please let me know if COc1ccc(-c2[nH]c3ccc(OCC(=O)NCC4CCCCN4)cc3c2C(C)C)cc1OC (centres unmarked) shows IC50 below 100 nM.
Not met

###

Target: human TLR7 (Homo sapiens, UniProt Q9NYK1)
Construct: host or cells: HEK-Blue cells
Sequence (Q9NYK1 27-1049): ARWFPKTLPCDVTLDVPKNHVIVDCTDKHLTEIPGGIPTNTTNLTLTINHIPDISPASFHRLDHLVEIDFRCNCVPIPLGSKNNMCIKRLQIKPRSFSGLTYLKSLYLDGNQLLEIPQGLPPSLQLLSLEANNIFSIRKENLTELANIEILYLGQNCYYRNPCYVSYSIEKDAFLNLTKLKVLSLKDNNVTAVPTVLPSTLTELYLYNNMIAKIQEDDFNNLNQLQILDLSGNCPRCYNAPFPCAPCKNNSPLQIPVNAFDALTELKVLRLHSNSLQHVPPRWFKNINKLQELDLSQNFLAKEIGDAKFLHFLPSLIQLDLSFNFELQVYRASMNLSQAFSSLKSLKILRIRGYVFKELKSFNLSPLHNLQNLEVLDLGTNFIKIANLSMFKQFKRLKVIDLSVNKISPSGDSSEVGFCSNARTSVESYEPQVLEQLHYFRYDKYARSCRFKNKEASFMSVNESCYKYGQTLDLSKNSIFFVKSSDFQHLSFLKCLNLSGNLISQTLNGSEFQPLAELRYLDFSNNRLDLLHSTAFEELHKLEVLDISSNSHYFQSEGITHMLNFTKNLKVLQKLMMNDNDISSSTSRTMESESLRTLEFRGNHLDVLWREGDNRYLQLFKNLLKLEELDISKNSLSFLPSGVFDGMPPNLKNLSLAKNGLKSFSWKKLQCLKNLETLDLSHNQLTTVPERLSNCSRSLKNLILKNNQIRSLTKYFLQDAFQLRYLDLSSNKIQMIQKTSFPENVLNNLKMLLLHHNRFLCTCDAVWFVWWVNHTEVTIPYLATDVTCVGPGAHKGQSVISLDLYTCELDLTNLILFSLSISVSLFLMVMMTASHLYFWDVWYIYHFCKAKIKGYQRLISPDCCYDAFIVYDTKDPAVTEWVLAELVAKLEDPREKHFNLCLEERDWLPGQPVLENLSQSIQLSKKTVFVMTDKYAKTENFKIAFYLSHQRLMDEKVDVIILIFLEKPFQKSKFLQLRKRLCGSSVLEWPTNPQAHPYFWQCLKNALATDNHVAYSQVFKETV
Test: TLR7 inhibition reporter assay (HEK-Blue SEAP)
Format: cell-based
Details: HEK-Blue cells overexpressing human TLR7, stimulated with gardiquimod 7.5 μM, 22 hour incubation
Recorded measurements of IC50, one per entry
Field: numeric (nM). Do not append units.

Here is how some molecules turned out for IC50.
[
  {
    "Molecule": "Cc1c(-c2[nH]c3ccc(OC4CCN(C5COC5)CC4)cc3c2C(C)C)cn(C)c(=O)c1C",
    "Study System": "human TLR7 (Homo sapiens, UniProt Q9NYK1)",
    "IC50 / nM": 123
  },
  {
    "Molecule": "Cc1c(-c2[nH]c3ccc(OC4CCN(C(=O)CN(C)C)CC4)cc3c2C(C)C)cn2cnnc2c1C",
    "Study System": "human TLR7 (Homo sapiens, UniProt Q9NYK1)",
    "IC50 / nM": 2.9
  },
  {
    "Molecule": "CCc1c(-c2ccnc(C)c2)[nH]c2ccc(OCC3CCN(C)CC3)cc12",
    "Study System": "human TLR7 (Homo sapiens, UniProt Q9NYK1)",
    "IC50 / nM": 131
  }
]

Now turn to the next molecule.
Respond only with IC50 recorded for COc1ccc(-c2[nH]c3ccc(OCC(=O)NC4CCC(N)CC4)cc3c2C(C)C)cc1OC (stereo not shown)
293
